Entry source: BigSolDB 2.1

Condition parameters: in ethanol, 313.15 K
Measurement kind: solubility (mole fraction)
Numbers only.

In: Would you mind telling me what solubility (mole fraction) value was observed for C/C(=C/C(C)=N/c1c(C(C)C)cccc1C(C)C)Nc1c(C(C)C)cccc1C(C)C ?
Out: 0.0036

---

Condition parameters: in n-hexane, 278.15 K
Measurement kind: solubility (mole fraction)
Answers are plain numbers.

In: Would you mind telling me what solubility (mole fraction) value was observed for C/C(=C/C(C)=N/c1c(C(C)C)cccc1C(C)C)Nc1c(C(C)C)cccc1C(C)C ?
Out: 0.0464

---

Condition parameters: in THF, 268.15 K
Measurement kind: solubility (mole fraction)
Answers are plain numbers.

In: Would you mind telling me what solubility (mole fraction) value was observed for C/C(=C/C(C)=N/c1c(C(C)C)cccc1C(C)C)Nc1c(C(C)C)cccc1C(C)C ?
Out: 0.101

---

Condition parameters: in toluene, 283.15 K
Measurement kind: solubility (mole fraction)
One number for each entry.

In: Would you mind telling me what solubility (mole fraction) value was observed for C/C(=C/C(C)=N/c1c(C(C)C)cccc1C(C)C)Nc1c(C(C)C)cccc1C(C)C ?
Out: 0.078

---

Condition parameters: in THF, 313.15 K
Measurement kind: solubility (mole fraction)
Answers are plain numbers.

In: Would you mind telling me what solubility (mole fraction) value was observed for C/C(=C/C(C)=N/c1c(C(C)C)cccc1C(C)C)Nc1c(C(C)C)cccc1C(C)C ?
Out: 0.223

---

Condition parameters: in n-hexane, 293.15 K
Measurement kind: solubility (mole fraction)
Answers are plain numbers.

In: Would you mind telling me what solubility (mole fraction) value was observed for C/C(=C/C(C)=N/c1c(C(C)C)cccc1C(C)C)Nc1c(C(C)C)cccc1C(C)C ?
Out: 0.0609

---

Condition parameters: in n-hexane, 288.15 K
Measurement kind: solubility (mole fraction)

In: Would you mind telling me what solubility (mole fraction) value was observed for C/C(=C/C(C)=N/c1c(C(C)C)cccc1C(C)C)Nc1c(C(C)C)cccc1C(C)C ?
Out: 0.0546

---

Condition parameters: in methanol, 288.15 K
Measurement kind: solubility (mole fraction)
Answers are plain numbers.

In: Would you mind telling me what solubility (mole fraction) value was observed for C/C(=C/C(C)=N/c1c(C(C)C)cccc1C(C)C)Nc1c(C(C)C)cccc1C(C)C ?
Out: 0.0002

---

Condition parameters: in methanol, 318.15 K
Measurement kind: solubility (mole fraction)
Answers are plain numbers.

In: Would you mind telling me what solubility (mole fraction) value was observed for C/C(=C/C(C)=N/c1c(C(C)C)cccc1C(C)C)Nc1c(C(C)C)cccc1C(C)C ?
Out: 0.0008

---

Condition parameters: in ethanol, 278.15 K
Measurement kind: solubility (mole fraction)
Numbers only.

In: Would you mind telling me what solubility (mole fraction) value was observed for C/C(=C/C(C)=N/c1c(C(C)C)cccc1C(C)C)Nc1c(C(C)C)cccc1C(C)C ?
Out: 0.001

---

Condition parameters: in THF, 308.15 K
Measurement kind: solubility (mole fraction)

In: Would you mind telling me what solubility (mole fraction) value was observed for C/C(=C/C(C)=N/c1c(C(C)C)cccc1C(C)C)Nc1c(C(C)C)cccc1C(C)C ?
Out: 0.199

---

Condition parameters: in toluene, 293.15 K
Measurement kind: solubility (mole fraction)
Answers are plain numbers.

In: Would you mind telling me what solubility (mole fraction) value was observed for C/C(=C/C(C)=N/c1c(C(C)C)cccc1C(C)C)Nc1c(C(C)C)cccc1C(C)C ?
Out: 0.099

---

Condition parameters: in n-hexane, 273.15 K
Measurement kind: solubility (mole fraction)
Give bare numbers.

In: Would you mind telling me what solubility (mole fraction) value was observed for C/C(=C/C(C)=N/c1c(C(C)C)cccc1C(C)C)Nc1c(C(C)C)cccc1C(C)C ?
Out: 0.0417

---

Condition parameters: in ethanol, 298.15 K
Measurement kind: solubility (mole fraction)

In: Would you mind telling me what solubility (mole fraction) value was observed for C/C(=C/C(C)=N/c1c(C(C)C)cccc1C(C)C)Nc1c(C(C)C)cccc1C(C)C ?
Out: 0.0022

---

Condition parameters: in ethanol, 308.15 K
Measurement kind: solubility (mole fraction)
Give bare numbers.

In: Would you mind telling me what solubility (mole fraction) value was observed for C/C(=C/C(C)=N/c1c(C(C)C)cccc1C(C)C)Nc1c(C(C)C)cccc1C(C)C ?
Out: 0.003

---

Condition parameters: in THF, 303.15 K
Measurement kind: solubility (mole fraction)
Answers are plain numbers.

In: Would you mind telling me what solubility (mole fraction) value was observed for C/C(=C/C(C)=N/c1c(C(C)C)cccc1C(C)C)Nc1c(C(C)C)cccc1C(C)C ?
Out: 0.184

---

Condition parameters: in THF, 273.15 K
Measurement kind: solubility (mole fraction)

In: Would you mind telling me what solubility (mole fraction) value was observed for C/C(=C/C(C)=N/c1c(C(C)C)cccc1C(C)C)Nc1c(C(C)C)cccc1C(C)C ?
Out: 0.108

---

Condition parameters: in toluene, 313.15 K
Measurement kind: solubility (mole fraction)

In: Would you mind telling me what solubility (mole fraction) value was observed for C/C(=C/C(C)=N/c1c(C(C)C)cccc1C(C)C)Nc1c(C(C)C)cccc1C(C)C ?
Out: 0.151

---

Condition parameters: in ethanol, 283.15 K
Measurement kind: solubility (mole fraction)
Numbers only.

In: Would you mind telling me what solubility (mole fraction) value was observed for C/C(=C/C(C)=N/c1c(C(C)C)cccc1C(C)C)Nc1c(C(C)C)cccc1C(C)C ?
Out: 0.0013

---

Condition parameters: in ethanol, 268.15 K
Measurement kind: solubility (mole fraction)
Give bare numbers.

In: Would you mind telling me what solubility (mole fraction) value was observed for C/C(=C/C(C)=N/c1c(C(C)C)cccc1C(C)C)Nc1c(C(C)C)cccc1C(C)C ?
Out: 0.0008
